Subject Of Test: PS liposomes
Experiment Description: SPR binding to PS liposomes
Particulars: PS liposomes, PC liposome response subtracted, Tris-HCl pH 8.0, 2 mM CaCl2, read-out: in vitro binding affinity (equilibrium binding constant, KD)
Experimental: To compare the kinetics of annexin V and PSP1 peptide binding to PS liposomes, SPR spectroscopy was employed (Reichert Inc, NY, USA). […] The interaction of the ligand and the analyte was analyzed using Scrubber 2 Biologic software (http://www.biologic.com.au/). The binding kinetics was assessed by determining the association (kon), dissociation (koff), and equilibrium (KD) constants. […]
Outcome Measure: Kd (µM)
I only need the number, in µM, no unit after it.

Problem: Using the record for CLSYYPSYC [PSP1, peptide-based phosphatidylserine (PS) indicator PSP1 (…)] , state its measured Kd.
Solution: 10.7
